Provide the reported melting point of each item.

Respond only with melting point recorded for CN1CCC(C)(O)CC1 62 to 64 °C

Respond only with melting point recorded for Nc1ncccc1OCc1cccnc1 104 to 106 °C

Respond only with melting point recorded for CCOC(=O)c1cc(CC)sc1NC(=O)C(C)Cl (configuration not stated) 57 to 59 °C

Respond only with melting point recorded for Cc1noc2nc(-c3cccc(Cl)c3)cc(C(=O)O)c12 239 to 241 °C

Respond only with melting point recorded for COC(=O)c1ccc(C(F)(F)F)cc1SC 49 to 51 °C

Respond only with melting point recorded for O=C(O)c1cc(Cl)nc(N2CCCC2)c1 215 to 217 °C

Respond only with melting point recorded for COc1ccccc1NC(=O)C(Br)C(C)C (configuration not stated) 107 to 109 °C

Values were extracted from a melting point compilation (Tetko et al.).
